# measurementTarget: Serine/threonine-protein kinase 10 (Homo sapiens)
Label Not fulfilled if ΔTm falls below 3 °C; label Fulfilled in every other case.

// below: answered compounds
- Cc1ccc(NC(=O)c2cccc(N(C)C)c2)cc1NC(=O)c1ccc(O)cc1: Not fulfilled
- O=c1c2ccccc2[nH]c(=S)n1CCN1CCC(=C(c2ccc(F)cc2)c2ccc(F)cc2)CC1: Fulfilled

In plain terms: is recorded ΔTm at least 3 °C for `O=C1NC(=O)C(c2c[nH]c3ccccc23)=C1c1c[nH]c2ccccc12` ? Fulfilled

* * *

# measurementTarget: Myotonin-protein kinase (Homo sapiens)
# Sequence (whole entry): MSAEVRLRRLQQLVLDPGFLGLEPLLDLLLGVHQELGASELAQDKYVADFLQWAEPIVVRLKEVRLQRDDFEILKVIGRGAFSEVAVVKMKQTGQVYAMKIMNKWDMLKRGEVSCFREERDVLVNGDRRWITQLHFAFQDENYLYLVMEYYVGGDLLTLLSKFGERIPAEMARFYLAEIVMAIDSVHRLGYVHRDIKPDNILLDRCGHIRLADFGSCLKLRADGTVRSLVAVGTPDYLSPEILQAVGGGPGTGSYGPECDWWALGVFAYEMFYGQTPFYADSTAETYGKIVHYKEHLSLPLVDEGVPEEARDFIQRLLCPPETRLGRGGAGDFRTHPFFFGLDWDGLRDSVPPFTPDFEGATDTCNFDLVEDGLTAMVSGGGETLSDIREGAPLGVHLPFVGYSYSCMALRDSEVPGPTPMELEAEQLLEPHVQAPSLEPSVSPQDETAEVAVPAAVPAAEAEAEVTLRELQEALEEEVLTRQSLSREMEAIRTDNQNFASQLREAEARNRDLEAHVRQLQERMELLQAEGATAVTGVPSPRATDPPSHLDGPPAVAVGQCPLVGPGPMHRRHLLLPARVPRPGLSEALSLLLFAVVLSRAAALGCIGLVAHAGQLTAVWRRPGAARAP
Short version: ΔTm at least 0.1 °C is Criterion met, less is Criterion not met.

* CN[C@@H]1CC2O[C@@](C)([C@@H]1OC)n1c3ccccc3c3c4c(c5c6ccccc6n2c5c31)C(=O)NC4 | Criterion met
* CCOC(=O)c1cnc2oc3ccc(O)cc3c2c1-c1ccccc1 | Criterion not met

// inclusive: ΔTm at least 0.1 °C? input: O=C1NC(=O)c2c1c1c3ccccc3[nH]c1n1cncc21 [ISOGRANULATIMIDE] Criterion met

Quick check: does `Cn1cc(/C=C2/C(=O)Nc3ccc(S(N)(=O)=O)cc32)c2ccccc21` have ΔTm greater than or equal to 0.1 °C? Criterion met
